Values compiled from ChEMBL document CHEMBL1133693.

# test description: Mean relative potency is the ratio of potencies of 'Ac-(Cha)RAMASL-NH2' and compound, to inhibit MHC class II DRB1*0101
Non-standard residues stand in square brackets, D forms with d. Residues, ends and D or L forms follow the SMILES beside them. Cha = N[C@@H](CC1CCCCC1)C(=O)O; NMeM = CN[C@@H](CCSC)C(=O)O
measurement name: Mean relative potency
Reply briefly: the number, and no unit.

Query: Return the recorded Mean relative potency value; entry: CSCC[C@H](NC(=O)[C@H](C)NC(=O)[C@H](CCCN=C(N)N)NC(=O)[C@H](CC1CC2CCC1C2)NC(C)=O)C(=O)N[C@@H](C)C(=O)N[C@@H](CO)C(=O)N[C@@H](CC(C)C)C(N)=O (stereo in doubt; 6)
Result: 0.96

New cases:
Query: Return the recorded Mean relative potency value; entry: CSCC[C@H](NC(=O)[C@H](C)NC(=O)[C@H](CCCN=C(N)N)NC(=O)[C@H](CC1CCCCC1)NC(C)=O)C(=O)N[C@H](C)C(=O)N[C@@H](CO)C(=O)N[C@H](C(N)=O)C(C)(C)C
Result: 1.64

Query: Return the recorded Mean relative potency value; entry: CSCC[C@H](NC(=O)[C@H](C)NC(=O)[C@H](CCCN=C(N)N)NC(=O)[C@H](CC1CCCCC1)NC(C)=O)C(N)=O (Ac-[Cha]RAM-NH2)
Result: 0.05

Query: Return the recorded Mean relative potency value; entry: CSCC[C@H](NC(=O)[C@H](CCSC)NC(=O)[C@H](CCCN=C(N)N)NC(=O)[C@H](CC1CCCCC1)NC(C)=O)C(=O)N[C@@H](C)C(=O)N[C@@H](CO)C(=O)N[C@@H](CC(C)C)C(N)=O (Ac-[Cha]RMMASL-NH2)
Result: 1.05

Query: Return the recorded Mean relative potency value; entry: CSCC[C@@H](C(=O)N[C@@H](C)C(=O)N[C@@H](CO)C(=O)N[C@@H](CC(C)C)C(N)=O)N(C)C(=O)[C@H](C)NC(=O)[C@H](CCCN=C(N)N)NC(=O)[C@H](CC1CCCCC1)NC(C)=O (Ac-[Cha]RA[NMeM]ASL-NH2)
Result: 0.046
